Kd: recorded values
measurementTarget: T1, His-tagged human TSLP antigen (huTSLP-his) (human)
T1 construct: Secreted from HEK293E and purified on nickel; whole entry named; also called Human TSLP-his
assayExplanation: Biacore T200, antibody captured on Protein A chip, antigen in flow, 1:1 Langmuir

binder	Kd (pM)
hu179-33 (antibody, human IgG1, kappa, V domains shown, IgG1-YTE, kappa; also called hu179VH3-N55V + hu179VL8-N53E) VH: EVQLVQSGAEVKKPGSSVKVSCKASGYTFSNYLIEWVRQAPGQGLEWIGVIDPGVGDTNYNENFKGRATLTADKSTSTAYIELSSLRSEDTAVYYCAREDNTGTAFDYWGQGTTVTVSS VL: SIVMTQTPLSLSVTPGQPASISCKASQSVSSDVTWYLQKPGQSPQLLIYYVSEHYTGVPDRFSGSGYGTDFTLKISRVEAEDVGVYYCQQHHRFPLTFGQGTKLEIKR	0.903
hu199-36 (antibody, human IgG1, kappa, V domains shown, IgG1-YTE, kappa) VH: EVQLVQSGAEVKKPGASVKVSCKASGYTFTTYWMHWVKQAPGQGLEWMGMIDPSDSETTLIQKFKDKVTLTVDKSTSTAYMELSSLRSEDTAVYYCARTLDGYYDYWGQGTTVTVSS VL: DIQMTQSPSSLSASVGDRVTITCRASENIYSYLAWYQQKPGKSPQLLVYFAKTLAEGVPSRFSGSVSGTQFTLTISSLQPEDFATYYCQHHYGTPWTFGGGTKVEIKR	10.5
hu3-13 (antibody, human IgG1, kappa, V domains shown, IgG1-YTE, kappa; also called hu3VH2-H110Y + hu3VL6) VH: EVQLVQSGAEVKKPGASVKVSCKASGYTFTDDYMNWVRQAPGQRLEWMGIISPYNGGTSYNQKFKGRVTLTVDKSASTAYMELSSLRSEDTAVYYCAREDYDYDGYAMDYWGQGTTVTVSS VL: EIVLTQSPATLSLSPGERATLSCRASSSVSYMHWYQQKPGQAPRPWIYATSNLASGVPARFSGSGSGTSYTLTISRLEPEDFAVYYCQQSDSGREFGGGTKVEIKR	1
hu119-30 (antibody, human IgG1, kappa, V domains shown, IgG1-YTE, kappa; also called hu119VH8 + hu119VL6-N31S) VH: EAQLVQSGAEVKKPGSSVKVSCKASGFTFSTYNMHWVRQAPGQGLEWIGAIYPGNGETSYNQKFKDRATLTVDKSTRTAYMELSSLRSEDTAVYYCAREDDYGEGYFDVWGQGTTVTVSS VL: DIVLTQSPATLSLSPGERATLSCRASESVDSSGLSFMHWYQQKPGQPPRLLLYRASNLGSGIPARFSGSGSGTDFTLTISSLEPEDFAVYYCQQINTDPLTFGQGTKLEIKR	5
